# Test Name: Bioavailability in Beagle dog at 2 mg/kg, po and 0.5 mg/kg, iv
# Type: ADME, organism-based, Canis lupus familiaris
# Experimental Parameters: in vivo
Measurement Type: bioavailability
Phrase the answer as number then unit, nothing more needed.

Data request, read-out bioavailability, for N#Cc1cc(Cl)cc(Oc2c(Cl)ccc3c2cnn3Cc2n[nH]c3nc(N)ccc23)c1
32%

---

# Test Name: Bioavailability in Sprague-Dawley rat at 10 mg/kg, po and 2 mg/kg, iv
# Format: ADME, organism-based
# Experimental Parameters: in vivo
bioavailability reference
The reply should contain only the number, in %.

Sample answers from the record:
>  <Compound>
N#Cc1cc(Cl)cc(Oc2c(Cl)ccc3c2cnn3Cc2n[nH]c3nc(N)ccc23)c1

>  <bioavailability / %>
39

$$$$
>  <Compound>
N#Cc1cc(Cl)cc(Oc2c(Cl)ccc3c2ncn3Cc2n[nH]c3ncccc23)c1

>  <bioavailability / %>
36

$$$$
>  <Compound>
N#Cc1cc(Cl)cc(Oc2c(Cl)ccc3c2nnn3Cc2n[nH]c3ncccc23)c1

>  <bioavailability / %>
7.3

$$$$
>  <Compound>
N#Cc1cc(Cl)cc(Oc2cc(OCc3n[nH]c4ncccc34)ccc2Cl)c1

>  <bioavailability / %>
7.5

$$$$

Data request, read-out bioavailability, for N#Cc1cc(Cl)cc(Oc2c(Cl)ccc3c2cnn3Cc2n[nH]c3ncccc23)c1 [MK-6186]
76

---

# Experimental Target: Human immunodeficiency virus type 1 reverse transcriptase (Human immunodeficiency virus 1, UniProt Q72547, K103N)
# Test Name: Inhibition of Human immunodeficiency virus reverse transcriptase K103N mutant by SPA assay
pKi: −log10 of the molar value.
pKi reference

>  <Structure As Smiles>
Cc1nc2c(Oc3cc(Cl)cc(C#N)c3)c(Cl)ccc2n1Cc1n[nH]c2ncccc12

>  <pKi>
< 6.22

$$$$

Data request, read-out pKi, for N#Cc1cc(Cl)cc(Oc2cc3c(cc2Cl)nnn3Cc2n[nH]c3ncccc23)c1
< 6.52

Data request, read-out pKi, for N#Cc1cc(Cl)cc(Oc2cc3c(cc2Cl)ncn3Cc2n[nH]c3ncccc23)c1
< 7.00

Data request, read-out pKi, for N#Cc1cc(Cl)cc(Oc2c(Cl)ccc3c2[nH]c(=O)n3Cc2n[nH]c3ncccc23)c1
< 6.22

---

# Test system: Human immunodeficiency virus
# Test Name: Antiviral activity against Human immunodeficiency virus expressing wild type reverse transcriptase infected in human MT4 cells by p24 antigen assay in the presence of 50% normal human serum
# Type: functional
# Experimental Parameters: Human immunodeficiency virus 1, MT4; read-out: CIC95
IC95 reference

Sample answers from the record:
>  <Structure As Smiles>
N#Cc1cc(Cl)cc(Oc2c(Cl)ccc3c2c(Cl)nn3Cc2n[nH]c3ncccc23)c1

>  <Experimental Target>
Human immunodeficiency virus

>  <IC95>
> 5 µM

$$$$
>  <Structure As Smiles>
N#Cc1cc(Cl)cc(Oc2c(Cl)ccc3c2[nH]c(=O)n3Cc2n[nH]c3ncccc23)c1

>  <Experimental Target>
Human immunodeficiency virus

>  <IC95>
> 0.833 µM

$$$$

Provide value of IC95 for this record tested with Human immunodeficiency virus: Cc1nc2c(Oc3cc(Cl)cc(C#N)c3)c(Cl)ccc2n1Cc1n[nH]c2ncccc12
> 0.833 µM

Source of measurements: ChEMBL document CHEMBL1938372
